assay procedure: Single rising oral dose Phase 1 PK, healthy adults (young males unless stated)
Type: in vivo, human
details: male, human, plasma, oral, 100 mg, single 100 mg; read-out: AUC0-24
measured endpoint: AUC(0-t) (ng·h/mL)
Please state the figure in ng·h/mL; there is no need to write the unit.

Q: Using the record for O=C(Nc1ccc(C[C@@H]2CC[C@H]([C@H](O)c3ccccc3)N2)cc1)[C@@H]1CCc2nccc(=O)n21 , report its AUC(0-t).
Result: 845

====

assay procedure: Aqueous vs non-aqueous tablet bioequivalence, 50 mg
Assay type: in vivo, human
details: human, plasma, po, 50 mg, 50 mg reference, non-aqueous tablet (PMF1)
measured endpoint: Cmax (ng/mL)
Express it in ng/mL; write the number only.

Q: // query Cmax value for entry O=C(Nc1ccc(C[C@@H]2CC[C@H]([C@H](O)c3ccccc3)N2)cc1)[C@@H]1CCc2nccc(=O)n21 [Vibegron]
Result: 38

====

assay procedure: Single rising oral dose Phase 1 PK, healthy adults (young males unless stated)
Type: in vivo, human
details: male, human, plasma, oral, 20 mg, single 20 mg
measured endpoint: AUC(0-inf) (ng·h/mL)
Give just the numeric value; ng·h/mL need not be written.

Q: # lookup: AUC(0-inf) of O=C(Nc1ccc(C[C@@H]2CC[C@H]([C@H](O)c3ccccc3)N2)cc1)[C@@H]1CCc2nccc(=O)n21
Result: 121

====

assay procedure: Single rising oral dose Phase 1 PK, healthy adults (young males unless stated)
Assay type: in vivo, human
details: both sexes, human, plasma, oral, 50 mg, single 50 mg, elderly male and female; read-out: t1/2 (converted)
measured endpoint: half-life (h)
Please reply with the bare figure in h and do not write the unit itself.

Q: Consider the molecule shown here: O=C(Nc1ccc(C[C@@H]2CC[C@H]([C@H](O)c3ccccc3)N2)cc1)[C@@H]1CCc2nccc(=O)n21 [Vibegron] What is its recorded half-life?
Result: 92

====

assay procedure: Single rising oral dose Phase 1 PK, healthy adults (young males unless stated)
Assay type: in vivo, human
details: male, human, plasma, oral, 50 mg, single 50 mg, Japanese, fasted
measured endpoint: AUC(0-inf) (ng·h/mL)
A number alone suffices; assume ng·h/mL.

Q: Which AUC(0-inf) reading was recorded for the compound O=C(Nc1ccc(C[C@@H]2CC[C@H]([C@H](O)c3ccccc3)N2)cc1)[C@@H]1CCc2nccc(=O)n21 ?
Result: 885

====

assay procedure: Moderate hepatic impairment PK, single 100 mg
Format: in vivo, human
details: human, plasma, oral, 100 mg, moderate hepatic impairment
measured endpoint: AUC(0-inf)
# number then unit; no other words

Q: GET /values?readout=AUC(0-inf)&item= O=C(Nc1ccc(C[C@@H]2CC[C@H]([C@H](O)c3ccccc3)N2)cc1)[C@@H]1CCc2nccc(=O)n21
Result: 1820 ng·h/mL

====

assay procedure: Single rising oral dose Phase 1 PK, healthy adults (young males unless stated)
Type: in vivo, human
details: male, human, plasma, oral, 5 mg, single 5 mg; read-out: AUC0-24
measured endpoint: AUC(0-t)

Q: Param item = O=C(Nc1ccc(C[C@@H]2CC[C@H]([C@H](O)c3ccccc3)N2)cc1)[C@@H]1CCc2nccc(=O)n21 [Vibegron] ; retrieve measured AUC(0-t).
Result: 8.31 ng·h/mL

====

assay procedure: Drug interaction: effect of conmed on vibegron PK
Type: in vivo, human
details: human, plasma, oral, 100 mg, 100 mg single, alone (ketoconazole study)
measured endpoint: Cmax

Q: Give the measured Cmax of O=C(Nc1ccc(C[C@@H]2CC[C@H]([C@H](O)c3ccccc3)N2)cc1)[C@@H]1CCc2nccc(=O)n21 .
Result: 113 ng/mL

====

assay procedure: Single rising oral dose Phase 1 PK, healthy adults (young males unless stated)
Assay type: in vivo, human
details: male, human, plasma, oral, 300 mg, single 300 mg
Procedure: The steady state AUC geometric mean accumulation ratios were ˜2 in young male subjects and ˜2.8 in elderly subjects (male and female). All subjects were healthy adults. […] Systemic exposures were greater than dose proportional up to 600 mg. Although exposures were similar in middle-aged males when compared to young males, plasma concentrations were higher in elderly compared to middle-aged and young subjects. […]
measured endpoint: AUC(0-inf) (ng·h/mL)
Please state the figure in ng·h/mL; there is no need to write the unit.

Q: What value of AUC(0-inf) has been recorded for this entry: O=C(Nc1ccc(C[C@@H]2CC[C@H]([C@H](O)c3ccccc3)N2)cc1)[C@@H]1CCc2nccc(=O)n21
Result: 7380

====

assay procedure: clinical
details: human, in vivo, 0.25 mg, AUC
measured endpoint: AUC (ng·h/mL)
Kindly answer with a numeric value in ng·h/mL, unit omitted.

Q: Recorded AUC for C[C@H]1O[C@@H](O[C@H]2[C@@H](O)C[C@H](O[C@H]3[C@@H](O)C[C@H](O[C@H]4CC[C@@]5(C)[C@H](CC[C@@H]6[C@@H]5C[C@@H](O)[C@]5(C)[C@@H](C7=CC(=O)OC7)CC[C@]65O)C4)O[C@@H]3C)O[C@@H]2C)C[C@H](O)[C@@H]1O , please?
Result: 16.6

====

assay procedure: Moderate hepatic impairment PK, single 100 mg
Type: in vivo, human
details: human, plasma, oral, 100 mg, healthy matched controls
measured endpoint: AUC(0-inf) (ng·h/mL)
Report the value in ng·h/mL with no unit label.

Q: Consider the compound shown here: O=C(Nc1ccc(C[C@@H]2CC[C@H]([C@H](O)c3ccccc3)N2)cc1)[C@@H]1CCc2nccc(=O)n21 What is its recorded AUC(0-inf)?
Result: 1440

====

assay procedure: Single rising oral dose Phase 1 PK, healthy adults (young males unless stated)
Format: in vivo, human
details: male, human, plasma, oral, 100 mg, single 100 mg, Japanese; read-out: AUC0-24
measured endpoint: AUC(0-t)
Give the figure together with its unit, number first.

Q: Field request: AUC(0-t) | item: O=C(Nc1ccc(C[C@@H]2CC[C@H]([C@H](O)c3ccccc3)N2)cc1)[C@@H]1CCc2nccc(=O)n21
Result: 0.92 µg·h/mL

====

assay procedure: Capsule vs tablet single-dose crossover PK, 150 mg, healthy males
Format: in vivo
details: male, human, plasma, oral, 3 × 50 mg tablets
measured endpoint: AUC(0-inf) (ng·h/mL)
// return numeric value only (unit: ng·h/mL, not printed)

Q: Quick check: AUC(0-inf) of O=C(Nc1ccc(C[C@@H]2CC[C@H]([C@H](O)c3ccccc3)N2)cc1)[C@@H]1CCc2nccc(=O)n21 ?
Result: 2660

====

assay procedure: Single rising oral dose Phase 1 PK, healthy adults (young males unless stated)
Type: in vivo, human
details: male, human, plasma, oral, 600 mg, single 600 mg
measured endpoint: Cmax (ng/mL)
Could you give me the number in ng/mL? Just the number is fine.

Q: Report Cmax for O=C(Nc1ccc(C[C@@H]2CC[C@H]([C@H](O)c3ccccc3)N2)cc1)[C@@H]1CCc2nccc(=O)n21 please.
Result: 1330

====

assay procedure: Single rising oral dose Phase 1 PK, healthy adults (young males unless stated)
Type: in vivo, human
details: male, human, plasma, oral, 2 mg, single 2 mg
measured endpoint: Cmax
Reply with the number and its unit after it.

Q: Sample O=C(Nc1ccc(C[C@@H]2CC[C@H]([C@H](O)c3ccccc3)N2)cc1)[C@@H]1CCc2nccc(=O)n21 [Vibegron] — what was its Cmax?
Result: 0.28 ng/mL

====

assay procedure: Single rising oral dose Phase 1 PK, healthy adults (young males unless stated)
Format: in vivo, human
details: male, human, plasma, oral, 50 mg, single 50 mg, Japanese; read-out: t1/2 (converted)
measured endpoint: half-life (h)
Write the answer as a number in h, unit excluded.

Q: Entry O=C(Nc1ccc(C[C@@H]2CC[C@H]([C@H](O)c3ccccc3)N2)cc1)[C@@H]1CCc2nccc(=O)n21 : reported half-life = ?
Result: 64.4

====

assay procedure: Single rising oral dose Phase 1 PK, healthy adults (young males unless stated)
Format: in vivo, human
details: male, human, plasma, oral, 10 to 600 mg, healthy young males; read-out: terminal elimination t1/2
measured endpoint: half-life

Q: // lookup half-life for O=C(Nc1ccc(C[C@@H]2CC[C@H]([C@H](O)c3ccccc3)N2)cc1)[C@@H]1CCc2nccc(=O)n21
Result: 43 to 75 h

====

assay procedure: Multiple rising dose Phase 1 PK, healthy subjects, day 14 (young males unless stated)
Format: in vivo, human
details: male, human, urine, oral; young males, all dose levels; read-out: renal clearance CLR at steady state
measured endpoint: CL renal

Q: Could you tell me which CL renal is on file for O=C(Nc1ccc(C[C@@H]2CC[C@H]([C@H](O)c3ccccc3)N2)cc1)[C@@H]1CCc2nccc(=O)n21 ?
Result: 150 to 187 mL/min

====

assay procedure: Single rising oral dose Phase 1 PK, healthy adults (young males unless stated)
Type: in vivo, human
details: male, human, plasma, oral, 100 mg, single 100 mg; read-out: t1/2 (converted)
measured endpoint: half-life (h)
# number only, unit h dropped from output

Q: Value lookup for half-life; key = O=C(Nc1ccc(C[C@@H]2CC[C@H]([C@H](O)c3ccccc3)N2)cc1)[C@@H]1CCc2nccc(=O)n21
Result: 72.8
